// reported Wnt reporter firefly/Renilla luciferase ratio for each item listed
- System: HEK293T (UBE3A T485A transfected, BAR Wnt reporter)
- testDescription: Wnt reporter firefly/Renilla luciferase ratio relative to plate median (fold (linear ratio)); higher = more Wnt/beta-catenin reporter activation
- conditions: concentration: 10 uM; 24 h
In all, about 1,100 compounds were measured (“Wnt reporter firefly/Renilla luciferase ratio relative to plate median”: median about 1.1, highest 2% from about 1.6 on). This is one part of a sample in which the highest values are shown more often than they occur.
Reply with the value as a number alone.

Oc1ccccc1Cl [2-Chlorophenol] ... 1.24
CCNc1nc(Cl)nc(NC(C)C)n1 [Atrazine] ... 1.29
c1cc2ccc3cccc4ccc(c1)c2c34 [Pyrene] ... 1.05
COP(=S)(OC)Oc1ccc([N+](=O)[O-])c(C)c1 [Fenitrothion] ... 1.43
CCOc1nc(F)cc2nc(S(=O)(=O)Nc3c(Cl)cccc3Cl)nn12 [Diclosulam] ... 1.05

Request: Indicate its recorded Wnt reporter firefly/Renilla luciferase ratio; the compound in question is CO/N=C(/C1=NOCCO1)c1ccccc1Oc1ncnc(Oc2ccccc2Cl)c1F [Fluoxastrobin]
Result: 0.315

Request: Indicate its recorded Wnt reporter firefly/Renilla luciferase ratio; the compound in question is CCCN(CCC)c1c([N+](=O)[O-])cc(C(C)C)cc1[N+](=O)[O-] [Isopropalin]
Result: 1.11

Request: Indicate its recorded Wnt reporter firefly/Renilla luciferase ratio; the compound in question is O=C(Nc1ccccc1)Nc1ccnc(Cl)c1 [Forchlorfenuron]
Result: 0.694

Request: Indicate its recorded Wnt reporter firefly/Renilla luciferase ratio; the compound in question is CCOP(=O)(SC(C)CC)N1CCSC1=O (stereo not given) [Fosthiazate]
Result: 1.5

Request: Indicate its recorded Wnt reporter firefly/Renilla luciferase ratio; the compound in question is CNC(=O)Oc1cccc2c1OC(C)(C)O2 [Bendiocarb]
Result: 0.983

The values you see were collected from the supplement of paper PMC9254222.
